All values here come from patent EP4692090A1.

Biological target: ATR kinase (Homo sapiens, UniProt Q13535)
Construct: purchased Eurofins 14-953
Sequence (Q13535 whole entry): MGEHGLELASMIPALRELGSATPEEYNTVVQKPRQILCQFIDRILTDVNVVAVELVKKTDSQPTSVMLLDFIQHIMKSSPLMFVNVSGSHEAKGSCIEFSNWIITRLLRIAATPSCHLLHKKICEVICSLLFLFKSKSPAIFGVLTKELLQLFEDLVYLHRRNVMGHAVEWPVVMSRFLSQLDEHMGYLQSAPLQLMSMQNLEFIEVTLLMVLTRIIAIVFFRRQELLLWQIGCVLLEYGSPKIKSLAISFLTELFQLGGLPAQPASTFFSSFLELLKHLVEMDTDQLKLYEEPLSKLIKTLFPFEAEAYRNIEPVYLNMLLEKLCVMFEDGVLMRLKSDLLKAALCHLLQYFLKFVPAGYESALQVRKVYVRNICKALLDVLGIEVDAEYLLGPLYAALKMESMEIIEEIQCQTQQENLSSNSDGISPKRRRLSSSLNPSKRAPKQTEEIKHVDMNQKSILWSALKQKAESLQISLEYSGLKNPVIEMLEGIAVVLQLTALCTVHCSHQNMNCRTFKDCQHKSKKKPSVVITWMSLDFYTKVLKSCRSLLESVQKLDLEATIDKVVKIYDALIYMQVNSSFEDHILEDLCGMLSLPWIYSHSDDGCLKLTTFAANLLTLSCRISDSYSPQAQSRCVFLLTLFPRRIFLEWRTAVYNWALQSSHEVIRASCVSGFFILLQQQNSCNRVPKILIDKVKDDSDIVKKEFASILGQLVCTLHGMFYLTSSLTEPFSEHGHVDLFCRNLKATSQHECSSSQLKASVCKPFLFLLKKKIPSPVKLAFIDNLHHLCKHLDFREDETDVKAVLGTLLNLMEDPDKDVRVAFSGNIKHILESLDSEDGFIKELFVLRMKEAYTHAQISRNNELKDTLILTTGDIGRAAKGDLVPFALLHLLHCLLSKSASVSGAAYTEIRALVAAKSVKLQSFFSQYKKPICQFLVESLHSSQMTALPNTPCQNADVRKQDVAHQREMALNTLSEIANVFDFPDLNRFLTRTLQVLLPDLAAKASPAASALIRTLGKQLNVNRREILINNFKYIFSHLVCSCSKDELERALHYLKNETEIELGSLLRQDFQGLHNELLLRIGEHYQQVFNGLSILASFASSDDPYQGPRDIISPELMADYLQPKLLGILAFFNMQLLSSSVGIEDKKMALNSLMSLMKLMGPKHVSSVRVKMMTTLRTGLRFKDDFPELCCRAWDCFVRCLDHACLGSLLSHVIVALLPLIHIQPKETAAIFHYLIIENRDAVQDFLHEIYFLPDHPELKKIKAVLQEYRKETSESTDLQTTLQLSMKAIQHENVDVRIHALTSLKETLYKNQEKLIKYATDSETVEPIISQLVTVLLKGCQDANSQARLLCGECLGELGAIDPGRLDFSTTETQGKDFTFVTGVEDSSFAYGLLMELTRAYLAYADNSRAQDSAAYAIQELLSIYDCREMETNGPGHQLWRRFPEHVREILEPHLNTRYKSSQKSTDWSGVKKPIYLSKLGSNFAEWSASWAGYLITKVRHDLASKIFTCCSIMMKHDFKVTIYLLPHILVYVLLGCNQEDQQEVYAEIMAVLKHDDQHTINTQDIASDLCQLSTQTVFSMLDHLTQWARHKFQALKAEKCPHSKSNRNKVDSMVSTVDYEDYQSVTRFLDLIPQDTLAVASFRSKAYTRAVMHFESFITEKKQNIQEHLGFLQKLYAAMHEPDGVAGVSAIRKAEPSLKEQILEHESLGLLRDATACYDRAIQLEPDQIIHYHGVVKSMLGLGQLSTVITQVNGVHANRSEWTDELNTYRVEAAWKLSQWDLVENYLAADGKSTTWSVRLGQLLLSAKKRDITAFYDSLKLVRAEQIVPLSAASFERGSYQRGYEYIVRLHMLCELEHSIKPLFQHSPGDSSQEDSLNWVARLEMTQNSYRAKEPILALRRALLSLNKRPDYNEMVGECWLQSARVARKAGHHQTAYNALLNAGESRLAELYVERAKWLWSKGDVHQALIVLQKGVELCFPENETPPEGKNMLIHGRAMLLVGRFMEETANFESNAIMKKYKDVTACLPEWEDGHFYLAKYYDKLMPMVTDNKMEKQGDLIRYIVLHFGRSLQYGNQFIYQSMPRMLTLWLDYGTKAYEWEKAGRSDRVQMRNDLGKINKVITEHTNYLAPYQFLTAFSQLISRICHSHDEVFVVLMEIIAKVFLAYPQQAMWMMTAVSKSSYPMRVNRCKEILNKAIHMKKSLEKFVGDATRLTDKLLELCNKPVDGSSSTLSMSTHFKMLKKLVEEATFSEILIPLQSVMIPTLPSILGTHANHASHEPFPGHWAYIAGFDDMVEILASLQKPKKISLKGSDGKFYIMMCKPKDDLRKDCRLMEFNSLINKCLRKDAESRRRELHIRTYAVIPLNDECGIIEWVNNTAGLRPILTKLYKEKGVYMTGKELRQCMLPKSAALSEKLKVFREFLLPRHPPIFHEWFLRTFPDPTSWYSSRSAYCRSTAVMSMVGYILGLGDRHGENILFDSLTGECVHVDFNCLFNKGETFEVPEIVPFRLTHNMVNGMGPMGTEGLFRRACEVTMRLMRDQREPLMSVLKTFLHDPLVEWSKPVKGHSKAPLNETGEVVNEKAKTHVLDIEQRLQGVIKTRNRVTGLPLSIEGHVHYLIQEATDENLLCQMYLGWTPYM
Sequence (Q8WXE1 whole entry partner): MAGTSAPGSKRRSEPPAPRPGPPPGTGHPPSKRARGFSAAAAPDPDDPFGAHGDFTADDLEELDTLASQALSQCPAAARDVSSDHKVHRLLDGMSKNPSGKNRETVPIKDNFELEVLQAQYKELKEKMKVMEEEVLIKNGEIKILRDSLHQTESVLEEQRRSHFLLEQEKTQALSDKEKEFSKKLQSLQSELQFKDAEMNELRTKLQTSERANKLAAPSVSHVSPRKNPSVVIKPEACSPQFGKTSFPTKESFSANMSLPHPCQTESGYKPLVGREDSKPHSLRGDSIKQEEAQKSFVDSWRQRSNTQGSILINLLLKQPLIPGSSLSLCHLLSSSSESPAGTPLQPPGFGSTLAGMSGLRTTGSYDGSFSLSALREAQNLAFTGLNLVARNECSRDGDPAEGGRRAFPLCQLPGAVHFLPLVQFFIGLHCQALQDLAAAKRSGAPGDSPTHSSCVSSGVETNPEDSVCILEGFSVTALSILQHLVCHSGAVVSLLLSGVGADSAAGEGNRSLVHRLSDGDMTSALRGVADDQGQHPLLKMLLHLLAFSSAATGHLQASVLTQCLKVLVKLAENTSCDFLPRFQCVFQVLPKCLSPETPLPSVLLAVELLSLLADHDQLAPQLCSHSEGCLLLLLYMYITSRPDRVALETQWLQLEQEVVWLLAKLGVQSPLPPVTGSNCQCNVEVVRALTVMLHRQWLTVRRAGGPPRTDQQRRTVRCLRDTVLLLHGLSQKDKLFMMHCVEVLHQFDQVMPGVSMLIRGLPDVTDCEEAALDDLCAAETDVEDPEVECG
Test: Inhibitory effect on ATR kinase activity (Caliper mobility shift, FAM-labeled RAD17 peptide substrate)
Assay type: biochemical
Settings: 1 nM ATR kinase (Eurofins), 28°C for 3 hours, maximum concentration 1 µM, 10 concentrations, read-out: ATR kinase IC50

| compound | IC50 |
| --- | --- |
| C[C@@H]1COCCN1c1cc2c3c(n1)c(-c1cc[nH]n1)nn3CCC(=O)N2C1CCOCC1 | 10 to 100 nM |
| CCC1c2cc(N3CCOC[C@H]3C)nc3c2c(nn3-c2cc[nH]n2)CCN1S(=O)(=O)C1CC1 (single isomer, unassigned) [Compound 145B] | < 10 nM |
| CC1c2cc(N3CCOC[C@H]3C)nc3c2c(nn3-c2cc[nH]n2)CCN1CC1COC1 (single isomer, unassigned) [Compound 44A] | 10 to 100 nM |
| C[C@@H]1COCCN1c1cc2c3c(nn(-c4cc[nH]n4)c3n1)CCN(C(=O)C1CC1(F)F)C2 (some centres unmarked) | < 10 nM |
| C#CC(C)N1CCc2nn(-c3cc[nH]n3)c3nc(N4CCOC[C@H]4C)cc(c23)C1 (some centres unmarked) | 10 to 100 nM |
| CC1c2cc(N3CCOC[C@H]3C)nc3c2c(nn3-c2cc[nH]n2)CCN1C (single isomer, unassigned) [Compound 35B] | < 10 nM |
| C[C@@H]1COCCN1c1cc2c3c(nn(-c4cc[nH]n4)c3n1)CCN(S(C)(=N)=O)C2 (some centres unmarked) | 10 to 100 nM |
| [2H]C([2H])([2H])N1CCc2nn(-c3cc[nH]n3)c3nc(N4CCOC[C@H]4C)cc(c23)C1C (single isomer, unassigned) [Compound 47A] | < 10 nM |
